Source of measurements: ChEMBL document CHEMBL6121014

What CC50 was measured for each of the following?
# method: Cytotoxicity against green monkey Vero cells assessed as reduction in cell viability at 24 to 48 hrs by MTT assay
# Type: toxicity, cell-based
# assay context: chlorocebus sabaeus, Vero cells; time 24-48 hrs
Please give a number only; it is taken to be in µM.

Query string: Report CC50 for COc1c(OCC(=O)N2CCN(S(=O)(=O)c3ccc(Cl)cc3)CC2)cc2oc3cc4c(c(O)c3c(=O)c2c1CC=C(C)C)C=CC(C)(C)O4 please.
Result string: 160

Query string: Report CC50 for CC(C)=CCc1c(O)cc2oc3cc(O)c4c(c3c(=O)c2c1O)CCC(C)(C)O4 please.
Result string: 11.4

Query string: Report CC50 for COc1c(OCC(=O)N2CCN(S(=O)(=O)c3ccc(F)cc3)CC2)cc2oc3cc4c(c(O)c3c(=O)c2c1CC=C(C)C)C=CC(C)(C)O4 please.
Result string: 191

Query string: Report CC50 for COc1c(OCC(=O)N2CCN(S(=O)(=O)c3ccc(C(F)(F)F)cc3)CC2)cc2oc3cc4c(c(O)c3c(=O)c2c1CC=C(C)C)C=CC(C)(C)O4 please.
Result string: 160

Query string: Report CC50 for COc1c(O)cc2oc3cc(O)c(CC=C(C)C)c(O)c3c(=O)c2c1CC=C(C)C please.
Result string: 15.4

Query string: Report CC50 for C=C(C)C1Cc2c(cc3oc4cc(O)c(OC)c(CC=C(C)C)c4c(=O)c3c2O)O1 (centres undefined) please.
Result string: 12.8

Query string: Report CC50 for COc1c(OCc2cn(-c3ccc(Cl)cc3)nn2)cc2oc3cc4c(c(O)c3c(=O)c2c1CC=C(C)C)C=CC(C)(C)O4 please.
Result string: 59.7

Query string: Report CC50 for CC(C)=CCc1c(O)c(CC=C(C)C)c2oc3c(O)ccc(O)c3c(=O)c2c1O please.
Result string: 7.71

Query string: Report CC50 for COc1c(O)cc2oc3cc4c(c(O)c3c(=O)c2c1CC=C(C)C)C=CC(C)(C)O4 please.
Result string: 6.68

Query string: Report CC50 for Oc1cc(O)c2c(c1)O[C@@H](c1ccc(O)c(O)c1)[C@@H](O)C2 [(+)-EPICATECHIN] please.
Result string: 206

Query string: Report CC50 for COc1c(OCc2cn(-c3cc(Cl)ccc3Cl)nn2)cc2oc3cc4c(c(O)c3c(=O)c2c1CC=C(C)C)C=CC(C)(C)O4 please.
Result string: 148

Query string: Report CC50 for COc1c(O)cc2oc3cc(O)c4c(c3c(=O)c2c1CC=C(C)C)OC(C)(C)CC4 please.
Result string: 119

Query string: Report CC50 for COc1c(OCC#Cc2ccc(C(C)=O)cc2)cc2oc3cc4c(c(O)c3c(=O)c2c1CC=C(C)C)C=CC(C)(C)O4 please.
Result string: 194

Query string: Report CC50 for COc1c(OCC(=O)N2CCN(S(=O)(=O)c3ccc(C#N)cc3)CC2)cc2oc3cc4c(c(O)c3c(=O)c2c1CC=C(C)C)C=CC(C)(C)O4 please.
Result string: 223

----------
# Tested on: Vero
# method: Cytotoxicity against green monkey Vero cells assessed as reduction in cell viability at 24 to 48 hrs by MTT assay
# Type: toxicity, cell-based
# Set-up: concentration or dose not given beside the values
# assay context: chlorocebus sabaeus, vero; time 24-48 hrs
reported property: Activity

Query string: Report Activity for COc1c(OCC#Cc2cccc(C(F)(F)F)c2)cc2oc3cc4c(c(O)c3c(=O)c2c1CC=C(C)C)C=CC(C)(C)O4 please.
Result string: > 90%

Query string: Report Activity for COc1c(OCC(=O)N2CCN(S(=O)(=O)c3ccc(Br)cc3)CC2)cc2oc3cc4c(c(O)c3c(=O)c2c1CC=C(C)C)C=CC(C)(C)O4 please.
Result string: > 90%

Query string: Report Activity for COc1c(OCC(=O)N2CCN(S(=O)(=O)c3ccc(F)cc3)CC2)cc2oc3cc4c(c(O)c3c(=O)c2c1CC=C(C)C)C=CC(C)(C)O4 please.
Result string: > 90%

Query string: Report Activity for COc1c(OCc2cn(-c3ccccc3)nn2)cc2oc3cc4c(c(O)c3c(=O)c2c1CC=C(C)C)C=CC(C)(C)O4 please.
Result string: > 90%

Query string: Report Activity for COc1c(OCC#Cc2ccc(C#N)cc2)cc2oc3cc4c(c(O)c3c(=O)c2c1CC=C(C)C)C=CC(C)(C)O4 please.
Result string: > 90%

Query string: Report Activity for COc1c(OCC#Cc2ccc(C(C)=O)cc2)cc2oc3cc4c(c(O)c3c(=O)c2c1CC=C(C)C)C=CC(C)(C)O4 please.
Result string: > 90%

Query string: Report Activity for COc1c(OCc2cn(-c3ccc(C)c(C)c3)nn2)cc2oc3cc4c(c(O)c3c(=O)c2c1CC=C(C)C)C=CC(C)(C)O4 please.
Result string: > 90%
